assay: Agonist activity at ERalpha in human MCF7 cells assessed as induction of cell proliferation incubated for 5 days by WST-8 assay
MEASURED ATTRIBUTE: EC50 (pM)
Quick reminder: number only, in pM, skip the unit.

INPUT: Item `CC(=O)N1C(C)(C)CC(=C(c2ccc(O)cc2)c2ccc(O)cc2)CC1(C)C` has what recorded EC50?
OUTPUT: 220
